Tested on: Plasmodium falciparum
Assay: Antimalarial activity schizonticidal against Plasmodium falciparum 3D7 infected erythrocytes at 0.05 ug/ml after 30-39 hrs
Type: functional
Assign criterion met to entries whose inhibition at 0.05 µg/mL meets or exceeds 20%; assign criterion not met to the rest.

Solved entries:
COMPOUND	QUALITATIVE LABEL
COC(=O)C1=C(Nc2ccc(OC)cc2)CC(c2cccs2)N(c2ccc(OC)cc2)C1c1cccs1 (centres undefined)	criterion not met
COC(=O)C1=C(Nc2ccccc2)CC(c2ccccc2)N(c2ccccc2)C1c1ccccc1 (centres undefined)	criterion not met
COC(=O)C1=C(Nc2ccc(Cl)cc2)CC(c2ccc(OC)cc2)N(c2ccc(Cl)cc2)C1c1ccc(OC)cc1 (centres undefined)	criterion not met

Query block: Could you verify whether the entry CCOC(=O)C1=C(Nc2ccccc2)CC(c2cccnc2)N(c2ccccc2)C1c1cccnc1 (centres undefined) shows inhibition at 0.05 µg/mL of no less than 20%?
Result block: criterion met

Query block: Same thing, different compound: COC(=O)C1=C(Nc2ccccc2)CC(c2ccc(F)cc2)N(c2ccccc2)C1c1ccc(F)cc1 (centres undefined)
Result block: criterion not met

Query block: Then this compound: CCN(CC)CCCC(C)Nc1ccnc2cc(Cl)ccc12 (centres undefined) [CHLOROQUINE]
Result block: criterion met

Query block: Cool, now COC(=O)C1=C(Nc2ccccc2)CC(c2ccc(OC)cc2)N(c2ccccc2)C1c1ccc(OC)cc1 (centres undefined)
Result block: criterion met

Query block: Same question for COC(=O)C1=C(Nc2ccc(OC)cc2)CC(c2ccc(F)cc2)N(c2ccc(OC)cc2)C1c1ccc(F)cc1 (centres undefined) please.
Result block: criterion met

Query block: Same question for CCOC(=O)C1=C(Nc2ccc(OC)cc2)CC(c2ccccc2)N(c2ccc(OC)cc2)C1c1ccccc1 (centres undefined) please.
Result block: criterion not met

###

System: Plasmodium falciparum
Test: Antimalarial schizonticidal activity against Plasmodium falciparum 3D7 infected erythrocytes at 2.5 ug/ml after 30-39 hrs
Format: functional
TEST READOUT: inhibition at 2.5 µg/mL

Use these answered entries as a reference point.
COMPOUND	TEST TARGET	REPORTED MEASUREMENT
COC(=O)C1=C(Nc2ccccc2)CC(c2ccc(F)cc2)N(c2ccccc2)C1c1ccc(F)cc1 (configuration not stated)	Plasmodium falciparum	100%
CCN(CC)CCCC(C)Nc1ccnc2cc(Cl)ccc12 (configuration not stated)	Plasmodium falciparum	97%

Query block: Would you mind telling me what inhibition at 2.5 µg/mL value was observed for CCOC(=O)C1=C(Nc2ccc(Cl)cc2)CC(c2ccc(Cl)cc2)N(c2ccc(Cl)cc2)C1c1ccc(Cl)cc1 (configuration not stated) ?
Result block: 0%

Query block: Here is the next compound: CCOC(=O)C1=C(Nc2ccccc2)CC(c2cccnc2)N(c2ccccc2)C1c1cccnc1 (configuration not stated)
Result block: 100%

###

Tested on: Plasmodium falciparum
Assay: Antimalarial schizonticidal activity against Plasmodium falciparum 3D7 infected erythrocytes at 1.25 ug/ml after 30-39 hrs
Type: functional
TEST READOUT: inhibition at 1.25 µg/mL (%)
Quick note: give the figure in %, leave out the unit.

Query block: Find the measured inhibition at 1.25 µg/mL: item COC(=O)C1=C(Nc2ccccc2)CC(c2ccc(F)cc2)N(c2ccccc2)C1c1ccc(F)cc1 (configuration not stated) , target or system Plasmodium falciparum.
Result block: 100

Query block: // same read-out, input: CCOC(=O)C1=C(Nc2ccc(Cl)cc2)CC(c2cccs2)N(c2ccc(Cl)cc2)C1c1cccs1 (configuration not stated)
Result block: 86

Query block: Another molecule to look at: CCOC(=O)C1=C(Nc2ccccc2)CC(c2ccccc2)N(c2ccccc2)C1c1ccccc1 (configuration not stated)
Result block: 25

Query block: Thanks! And CCOC(=O)C1=C(Nc2ccc(OC)cc2)CC(c2cccc(Cl)c2)N(c2ccc(OC)cc2)C1c1cccc(Cl)c1 (configuration not stated) ?
Result block: 16

Query block: Continue with COC(=O)C1=C(Nc2ccccc2)CC(c2ccc(OC)cc2)N(c2ccccc2)C1c1ccc(OC)cc1 (configuration not stated)
Result block: 100

Query block: // next record CCOC(=O)C1=C(Nc2ccc(OC)cc2)CC(c2ccccc2)N(c2ccc(OC)cc2)C1c1ccccc1 (configuration not stated)
Result block: 100

Query block: Can you check COC(=O)C1=C(Nc2ccc(Cl)cc2)CC(c2ccc(OC)cc2)N(c2ccc(Cl)cc2)C1c1ccc(OC)cc1 (configuration not stated) next?
Result block: 100
